Exercise: state measured IC50 for each of the compounds provided.
molecular target: IDH1-R132H (Homo sapiens, UniProt O75874, R132H); assay: Fluorescent determination of IDH1-R132H cell activity (2-HG in U87MGR132H cells); settings: 2-HG inhibition in U87MGR132H cells transfected with IDH1-R132H mutant plasmid
Sequence (O75874 whole entry R132H): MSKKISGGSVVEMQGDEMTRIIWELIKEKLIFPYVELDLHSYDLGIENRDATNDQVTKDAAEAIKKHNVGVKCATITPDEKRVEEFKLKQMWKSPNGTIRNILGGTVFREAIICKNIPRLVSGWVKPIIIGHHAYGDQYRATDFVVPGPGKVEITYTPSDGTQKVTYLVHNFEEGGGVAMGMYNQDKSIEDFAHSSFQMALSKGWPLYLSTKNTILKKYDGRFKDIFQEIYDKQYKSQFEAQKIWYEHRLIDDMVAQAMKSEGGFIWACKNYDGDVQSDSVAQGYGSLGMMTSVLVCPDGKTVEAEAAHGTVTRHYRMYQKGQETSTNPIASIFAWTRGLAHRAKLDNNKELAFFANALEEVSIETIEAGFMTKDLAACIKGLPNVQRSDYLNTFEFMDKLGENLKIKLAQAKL

Tell me IC50 of OC1C(F)=C(c2nc(Nc3ccnc(C(F)(F)F)c3)nc(N3CCC(F)(F)C3)n2)CCC1(F)F (stereo not shown) when tested on IDH1-R132H (Homo sapiens, UniProt O75874, R132H).
> 10 µM

Tell me IC50 of C[C@H](Nc1nc(NC2CC2)nc(C2=C(F)C(O)C(F)(F)CC2)n1)C(F)(F)F (mixture of isomers) when tested on IDH1-R132H (Homo sapiens, UniProt O75874, R132H).
> 10 µM

Tell me IC50 of CCCONc1nc(Nc2ccnc(C(F)(F)F)c2)nc(C2=C(F)C(O)C(F)(F)CC2)n1 (stereo not shown) when tested on IDH1-R132H (Homo sapiens, UniProt O75874, R132H).
> 10 µM

Tell me IC50 of CC(C)(O)CNc1nc(Nc2ccc3sncc3c2)nc(C2=C(F)C(O)CCC2)n1 (stereo not shown) when tested on IDH1-R132H (Homo sapiens, UniProt O75874, R132H).
> 10 µM
